- test: soluble on expression in E. coli; label from the status in PepcDB or PDB records
assay.readout: soluble on expression in E. coli

sequence.content: MQGDPDVLRLLNEQLTSELTAINQYFLHSKMQDNWGFTELAAHTRAESFDEMRHAEEITDRILLLDGLPNYQRIGSLRIGQTLREQFEADLAIEYDVLNRLKPGIVMCREKQDTTSAVLLEKIVADEEEHIDYLETQLELMDKLGEELYSAQCVSRPPT
observed.result: not soluble
//
sequence.content: MSAKIYRPAKTAMQSGTAKTNVWVLEFDAEVPRKIDPIMGYTSSSDMKQQVKLTFETQEQAEAYAQRKGIEYRVILPKEATRKVVSYTDNFRFNRTQPWTHLEHHHHHH
observed.result: soluble
//
sequence.content: MSTAFAIPLFQFSPKPLHWKKRIAMWKAEIMDIKTTETGSRGEYSATIDGHKAQMTYSRTSPSLIIIDHTGVPDALRGKGVGQALAAHAIDEARKGGWKIIPLCPFFKAQTLRHADWADVIQGLEHHHHHH
observed.result: soluble
//
sequence.content: MAHHHHHHMHPPSSGQGLFPRYGGGWMHQFGHVYALQQELLDPNANNWFRAVELWHTARQEGVAMNVSHFTSILRQCVQPGAWAQSLQVLKQMKRENVRPDVVGVGCALAACVEGKHYDEVENIFATFHKTMLLDSVCHLALIRARQESGNAKGAIAAGKQQQADQVPFLPYTYTHLLEACNAEDDAAYAMELVRNMHSEQWVPSQCAMLAIEDLGRRHERLAAFSRPLLSASDKADSALPSFDASRRLLPPEW
observed.result: not soluble
//
sequence.content: MKQKEYMEYRPLGEEIERIRKGKNIPLRVFDENGVSSRSYQRFVQGNSELRISDLAIIVEILSISPMEMTEKLTPMSKTVLAKEQFNQAIFSKNFQESSRIVADYRAYYEKSSFALGKQEVMYSMLALEYLFNPQTVVTKEEIIALENQILERLINADVYTIFNLKFLALQKNVGLQPFPTSLLFRVLQSVNEREIIDIRSLEIIEQVIIDFLFAAIVSQNVPHILHVLSMFKEYEVGENNWRMILWKKIAEKIEMILTNEEIFADWSIFKEQILLSITLFLPKAKQEFFAGQLEKIEDSLKEIKEN
observed.result: not soluble
//
sequence.content: QSELTQPRSVSGSPGQSVTISCTGTSRDVGGYNYVSWYQQHPGKAPKLIIHDVIERSSGVPDRFSGSKSGNTASLTISGLQAEDEADYYCWSFAGSYYVFGTGTDVTVLGQPKANPTVTLFPPSSEELQANKATLVCLISDFYPGAVTVAWKADGSPVKAGVETTKPSKQSNNKYAASSYLSLTPEQWKSHRSYSCQVTHEGNTVEKTVAPT
observed.result: soluble
//
sequence.content: MGSDKIHHHHHHMTKPPTLRPRFWETVPLDRMTPSEWEALCDGCGKCCLNKIEFEDTGEVAFTRIACRLLDGDSCRCSNYEIRRQFVPDCVQLSPATLPKIVYWMPRTCAYRLLHEGKSLPGWHYLLTGDRNSVHDAGASVQGWTVPEFEVAEEDWEDHIIEETP
observed.result: not soluble
//
sequence.content: MKPLTDTDYIHALIAEGEHQQQDFKFEISDTRKIAKTLSAFANTDGGRLLIGVKDNGKIAGVRSDEEKYMIEAAAQLYCWPEVDYSMQTFHVEGRSVLVVQIDESEHKPVFAKDENGKSLAYIRIKDENILATPVHLRVWQQSGSPAGELIRYTEREQLLLDLLEENTSLSLNRYCRQAGISRRAAEHLLAKFIRFDIVEPIFENHKFYFRLKLEHHHHHH
observed.result: soluble
//
sequence.content: GTDQYTLLANRVQNAVEARQSATEAERRRHRLEQILKTVPSCVVQLDRDGQFVFANQRAIDVLGLSQSELKDRLYNDPEWEIRDLDGHPIPDAELPFRQVLETGQPLSDARHTIHWPDGTEKVLSVNGAPLFDDD
observed.result: not soluble
//
sequence.content: MGSDKIHHHHHHMHNVDQQELSKFEQMAHSWWDPNGSFKPIHLLNPLRFNYIQTKANGLFGKKVLDVGCGGGILSEAMAQAGAIVTGIDMTTEPLEIAKQHAIENGLTIHYQQTTVEDLRLNHTACNAEKFDVVTCMEMLEHVPDPLSVIQSCKALLKPDGVLFLSTINRTLKAYMLVVIGAEYLLKMLPKGTHEFEKFIKPAELLTWCDQASLECKEMKGYHFNPLTEKFWLNNDVSCNYIAMLKAK
observed.result: not soluble

INPUT: Name the reported soluble on expression in E. coli value associated with the sequence MRYVIAVKSPIYGKQGAFLAYQFAESLIKKEHEISQIFFFQDGVSNGNALVYPANDEVNLQKHWQMFSITYNVPLHLCVAASQRRGVVDNLTTPTTAHYNLAEGFTIAGLGEFIAASLNADRVITL
OUTPUT: soluble

INPUT: Name the reported soluble on expression in E. coli value associated with the sequence MNMNAKIIDQDNKGIGVRVHDNDETEHTVAVGFDGEIQGHSQDGYPDDPAKRTGKENEYVSQARRYAKYYVAKEKGYDVLPWDRDTAAMQRVQTAIESLSDEDFEKYFGTYFDQINSRLPNVTAPVPEPDAVGDDEFVLYLLDVYLDEAGRIEAVSDIHFLYLDDNRERQVVLGDQPLNRDPDARLQLKPNYLPSLEVAQEFFVYHLRCQIRDCYLLRGEEPPEQYRVIGPGLYDAATRYLYEDRPYRPYHKLHADIPGYSLEFDYGFGEQGKEMAKIAGAVADNK
OUTPUT: not soluble

INPUT: Name the reported soluble on expression in E. coli value associated with the sequence MSLIDLKPKVERVDAIQSFVSQETPIVTIHDSDGASGTGYSYTIGTGGPSVMALLEQTLVPALIGKDADRIDGIWRDLLFLTHATAVGPITSLALAAIDIALWDLRCKKMGLPLWKAAGGSRDRIPLYSTEGGWLHLETAALVEDALAMKEQGFRGSKIKIGRAHLSEDRARLGAIRAAVGDSYEIMTDANQGFTLSEAIRRAKVLEEFGIGWFEEPLPADDVLSHQELSRRTHVPIAVGESMYSLSQFKDYLQVGAAQIVQVDVARIGGITPWLKVAHLAEAHSVMVCPHFLMELHLPLVCAVPNAKWLEYIPQLDGVTRQNMQISNGDAVPSDEPGLGIDWDWDAITAQEIGARSIGGAEGHHHHHH
OUTPUT: not soluble

INPUT: Name the reported soluble on expression in E. coli value associated with the sequence QPKPEEKLTNNIILKKLQIALNLKADEVLDLLKLVNFRLSKHELSAFFRKPDHKHYRVCKDQVLRNFLQAVQQNLRG
OUTPUT: not soluble
